Origin of the recorded values: ChEMBL document CHEMBL4513146

Each entry below carries its recorded Inhibition.
tested on: Escherichia coli; conditions: Concentration 32 ug.mL-1;; ASSAY_TEST Inhibition of Bacterial Growth; detection method Absorption (OD600); MEDIA CAMHB; plate type 384well; NBS; CORNING #3640; time 18 hr
Description: Antibacterial activity against Escherichia coli ATCC 25922 (CO-ADD:GN_001); MIC in CAMBH media using NBS plates, by OD(600)
Entries with a potency or affinity are not part of this list.
value-kind: Inhibition (%)

[[record]]
compound = "CCCc1nnc2c(=O)n(CC(=O)Nc3cccc(C#N)c3)c3ccccc3n12"
value_kind = "Inhibition"
unit_of_measurement = "%"
number = -7.78

[[record]]
compound = "COc1cc(NC(=O)Cn2nc3c(Oc4ccccc4)nccn3c2=O)cc(OC)c1"
value_kind = "Inhibition"
unit_of_measurement = "%"
number = 1.31

[[record]]
compound = "CCCNC(=O)Cn1nc2nc(Nc3ccc(F)cc3)ccn2c1=O"
value_kind = "Inhibition"
unit_of_measurement = "%"
number = -13.63

[[record]]
compound = "COC(=O)c1cccc(NC(=O)Cn2nc3c(Oc4ccccc4)nccn3c2=O)c1"
value_kind = "Inhibition"
unit_of_measurement = "%"
number = -4.6

[[record]]
compound = "Cc1cccc(Oc2nccn3c(=O)n(CC(=O)NCCCc4ccccc4)nc23)c1C"
value_kind = "Inhibition"
unit_of_measurement = "%"
number = -1.44

[[record]]
compound = "Cc1ccc(NC(=O)CSc2nc3ccccc3n3cnnc23)c(Br)c1"
value_kind = "Inhibition"
unit_of_measurement = "%"
number = -9.92

[[record]]
compound = "Cc1cc2nn(CC(=O)N3CCCC3)c(=O)n2c(Nc2ccc(C)c(F)c2)n1"
value_kind = "Inhibition"
unit_of_measurement = "%"
number = -7.93

[[record]]
compound = "CCOc1ccc(-n2ccn3c(SCC(=O)NCc4cccc(OC)c4OC)nnc3c2=O)cc1"
value_kind = "Inhibition"
unit_of_measurement = "%"
number = -1.13

[[record]]
compound = "CCCCOc1ccc(-c2cc3c4nnc(SCC(=O)Nc5ccc(F)cc5)n4ccn3n2)cc1"
value_kind = "Inhibition"
unit_of_measurement = "%"
number = -6.79

[[record]]
compound = "CCCc1nnc2c(=O)n(CC(=O)Nc3ccc(Cl)c(Cl)c3)c3ccccc3n12"
value_kind = "Inhibition"
unit_of_measurement = "%"
number = 0.68

[[record]]
compound = "CCc1ccc(NC(=O)Cn2nc3c(Sc4ccccc4)nccn3c2=O)cc1"
value_kind = "Inhibition"
unit_of_measurement = "%"
number = -4.33

[[record]]
compound = "C=Cc1ccc(CN(c2ccc(C(C)C)cc2)S(=O)(=O)c2cccn3cnnc23)cc1"
value_kind = "Inhibition"
unit_of_measurement = "%"
number = 0.1

[[record]]
compound = "CCOc1ccc(-n2ccn3c(SC(C)C(=O)Nc4ccc5c(c4)OCCO5)nnc3c2=O)cc1 (centres undefined)"
value_kind = "Inhibition"
unit_of_measurement = "%"
number = 0.39

[[record]]
compound = "Cc1cccc(NC(=O)Cn2nc3c4cc(-c5ccc(F)cc5)nn4ccn3c2=O)c1C"
value_kind = "Inhibition"
unit_of_measurement = "%"
number = -5.27

